Test system: human MAL
experimental protocol: Phage display screening of TIR domain-derived peptide library against immobilized MAL, NGS analysis after four rounds
Format: binding
details: P8_MAL: library displayed on P8 coat protein, phages remaining after fourth round
So basically, the class depends on measured NGS count, and the ranges are bottom end (below 3000), midrange (3000 to below 5000), top end (5000 or more)

Illustrative cases are given below, each with its answer.
YLKWGYPWFWDRLRFA
bottom end
SLLYDHLRWLGIRAFL
bottom end
YFLHFLLFSRPETEYI
top end

Req: Kindly state the category for this sequence: NQWRNALTAAANLSGW
Resp: bottom end

Req: Can you handle TFLGHLYNALVQAGIH next?
Resp: top end

Req: Repeat with AFFWAQLKSVLGNPTM
Resp: top end

Req: Same for YLISYIFNELARAGFS
Resp: bottom end

Req: Can you check WFLFTVRSAIYAMSPA next?
Resp: midrange
